// provenance: patent US20250270328A1

Molecular target: T1, human KLRB1 protein extracellular domain (ECD) (human, UniProt Q12918 67-225)
T1 construct: range 67-225; The ELISA and SPR text says only 'human KLRB1 ECD'; also called human KLRB1 ECD; CD161
T1 sequence (looked up): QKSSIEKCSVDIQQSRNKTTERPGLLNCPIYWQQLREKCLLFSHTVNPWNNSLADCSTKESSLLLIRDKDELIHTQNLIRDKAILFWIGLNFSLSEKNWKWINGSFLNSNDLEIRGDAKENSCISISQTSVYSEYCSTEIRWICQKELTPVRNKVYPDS
Assay: SPR, human KLRB1 ECD; format not stated
Entries and their measured koff follow.
Please state the figure in s⁻¹; there is no need to write the unit.

{"binder": "10A3D6hum1.5 (antibody, V domains shown, Humanized antibody) VH: QVQLVQSGAEVKKPGASVKVSCKASGYSFTGYTMNWVRQAPGQGLEWMGLINPNTGGTYYNQKFKDRVTMTRDTSISTAYMELSRLRSDDTAVYYCARLGDNYRGYFDSWGQGTTVTVSS VL: EIVMTQSPATLSVSPGERATLSCKASQDVGTAVVWYQQKPGQAPRLLIDWASIRHTGIPARFSGSGSGTEFTLTISSLQSEDFAVYYCQQYSTYLYTFGGGTKVEIK", "unit tag": "s⁻¹", "koff": 0.000178}

// field: koff; key: 10A3D6C109Chum3.5 (antibody, V domains shown, Humanized variant of 10A3D6 made by CDR grafting) VH: QVQLVQSGAEVKKPGASVKVSCKASGYSFTGYTMNWVRQAHGQNLEWIGLINPNTGGTYYNQKFKDRVTLTVDTSISTAYMELSRLRSDDTAVYYCARLGDNYRGYFDCWGQGTTVTVSS VL: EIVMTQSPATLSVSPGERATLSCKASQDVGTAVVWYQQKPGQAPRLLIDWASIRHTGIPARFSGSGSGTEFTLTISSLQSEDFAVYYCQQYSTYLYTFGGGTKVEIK ; value = 0.000114
